test: Tmax in ICR mouse at 30 mg/kg, po by LC-MS/MS analysis
Assay type: ADME, organism-based
assayConditions: ICR, in vivo, read-out: Tmax
experimentalEndpoint: Tmax (h)

1. CC1(C)[C@H](NC(=O)c2ccc(N3CCN(CCOC4CCN(c5ccc6nnn(C7CCC(=O)NC7=O)c(=O)c6c5)CC4)CC3)cc2)C(C)(C)[C@H]1Oc1ccc(C#N)c(Cl)c1 (some centres not stated)
2. CC1(C)[C@H](NC(=O)c2ccc(N3CCN(C4CC5(CCN(C(=O)C6CCN(c7ccc8nnn(C9CCC(=O)NC9=O)c(=O)c8c7)CC6)CC5)C4)CC3)cc2)C(C)(C)[C@H]1Oc1ccc(C#N)c(Cl)c1 (some centres not stated)
Which of the two items, 1 and 2 , has the greater recorded Tmax? Refer to your chosen item by its label in the answer.
2

###

systemTested: Protein cereblon/Androgen receptor (Homo sapiens, UniProt P10275+Q96SW2)
Sequence (P10275 whole entry, looked up): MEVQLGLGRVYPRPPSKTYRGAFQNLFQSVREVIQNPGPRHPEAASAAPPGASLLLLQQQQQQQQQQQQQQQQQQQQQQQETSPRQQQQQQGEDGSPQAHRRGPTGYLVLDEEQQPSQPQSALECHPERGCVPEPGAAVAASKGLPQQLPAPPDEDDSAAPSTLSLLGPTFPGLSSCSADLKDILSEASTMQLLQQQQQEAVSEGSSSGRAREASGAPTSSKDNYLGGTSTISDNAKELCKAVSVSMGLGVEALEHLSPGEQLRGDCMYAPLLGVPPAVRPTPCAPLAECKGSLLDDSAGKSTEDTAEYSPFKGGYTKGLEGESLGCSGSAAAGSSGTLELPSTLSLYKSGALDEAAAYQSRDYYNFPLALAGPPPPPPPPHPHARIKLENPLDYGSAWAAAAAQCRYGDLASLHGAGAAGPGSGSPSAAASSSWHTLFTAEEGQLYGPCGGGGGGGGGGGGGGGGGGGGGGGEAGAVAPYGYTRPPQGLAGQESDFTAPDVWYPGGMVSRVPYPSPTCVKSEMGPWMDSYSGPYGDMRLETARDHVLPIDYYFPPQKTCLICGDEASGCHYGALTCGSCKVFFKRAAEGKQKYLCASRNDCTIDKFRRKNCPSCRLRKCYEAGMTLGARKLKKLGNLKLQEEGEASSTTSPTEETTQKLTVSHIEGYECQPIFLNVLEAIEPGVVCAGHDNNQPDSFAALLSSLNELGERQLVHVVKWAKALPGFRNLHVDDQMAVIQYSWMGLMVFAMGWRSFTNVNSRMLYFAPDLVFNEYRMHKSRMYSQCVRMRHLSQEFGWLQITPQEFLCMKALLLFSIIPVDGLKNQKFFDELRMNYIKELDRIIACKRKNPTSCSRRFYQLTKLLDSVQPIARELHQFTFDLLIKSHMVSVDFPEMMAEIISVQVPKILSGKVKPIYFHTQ
Sequence (Q96SW2 whole entry, looked up): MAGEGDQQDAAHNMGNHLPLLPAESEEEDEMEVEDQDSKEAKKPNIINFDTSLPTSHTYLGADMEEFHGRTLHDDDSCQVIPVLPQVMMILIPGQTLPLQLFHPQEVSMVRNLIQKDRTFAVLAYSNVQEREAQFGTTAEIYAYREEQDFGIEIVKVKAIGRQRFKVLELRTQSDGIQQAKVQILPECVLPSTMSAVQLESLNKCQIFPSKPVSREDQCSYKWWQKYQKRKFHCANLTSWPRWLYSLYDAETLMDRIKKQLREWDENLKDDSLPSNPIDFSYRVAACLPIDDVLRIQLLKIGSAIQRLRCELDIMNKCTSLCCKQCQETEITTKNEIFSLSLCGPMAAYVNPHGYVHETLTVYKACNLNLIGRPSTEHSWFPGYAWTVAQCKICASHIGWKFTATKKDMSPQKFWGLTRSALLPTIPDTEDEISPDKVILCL
test: Protac activity at CRBN/AR in human LNCaP cells assessed as AR degradation at 10 uM by Western blotting analysis relative to control
Type: cell-based
experimentalEndpoint: Activity (%)

>  <compound>
CC1(C)[C@H](NC(=O)c2ccc(N3CCN(CCOC4CCN(C(=O)C5CCN(c6ccc7nnn(C8CCC(=O)NC8=O)c(=O)c7c6)CC5)CC4)CC3)cc2)C(C)(C)[C@H]1Oc1ccc(C#N)c(Cl)c1 (stereo not given in full)

>  <Activity, %>
98

$$$$
>  <compound>
CC1(C)[C@H](NC(=O)c2ccc(N3CCN(CCC4CCN(C(=O)C5CCN(c6ccc7nnn(C8CCC(=O)NC8=O)c(=O)c7c6)CC5)CC4)CC3)cc2)C(C)(C)[C@H]1Oc1ccc(C#N)c(Cl)c1 (stereo not given in full)

>  <Activity, %>
99

$$$$
>  <compound>
CC1(C)[C@H](NC(=O)c2ccc(N3CCN(CC4CCN(c5ccc6c(=O)n(C7CCC(=O)NC7=O)nnc6c5)CC4)CC3)cc2)C(C)(C)[C@H]1Oc1ccc(C#N)c(Cl)c1 (stereo not given in full)

>  <Activity, %>
83

$$$$
>  <compound>
CC1(C)[C@H](NC(=O)c2ccc(N3CCN(CCC4CCN(C(=O)COc5ccc6nnn(C7CCC(=O)NC7=O)c(=O)c6c5)CC4)CC3)cc2)C(C)(C)[C@H]1Oc1ccc(C#N)c(Cl)c1 (stereo not given in full)

>  <Activity, %>
82

$$$$
>  <compound>
CC1(C)[C@H](NC(=O)c2ccc(N3CCN(CC4CCN(c5ccc6nnn(C7CCC(=O)NC7=O)c(=O)c6c5)CC4)CC3)cc2)C(C)(C)[C@H]1Oc1ccc(C#N)c(Cl)c1 (stereo not given in full)

>  <Activity, %>
95

$$$$

###

test: AUCt in ICR mouse at 30 mg/kg, po by LC-MS/MS analysis
Format: ADME, organism-based
Parameters: dose 30 mg/kg
assayConditions: ICR, in vivo
experimentalEndpoint: AUC(0-t) (µg·h/mL)

P. CC1(C)[C@H](NC(=O)c2ccc(N3CCN(C4CC5(CCN(C(=O)C6CCN(c7ccc8nnn(C9CCC(=O)NC9=O)c(=O)c8c7)CC6)CC5)C4)CC3)cc2)C(C)(C)[C@H]1Oc1ccc(C#N)c(Cl)c1 (some centres not stated)
Q. CC1(C)[C@H](NC(=O)c2ccc(N3CCN(CCOC4CCN(c5ccc6nnn(C7CCC(=O)NC7=O)c(=O)c6c5)CC4)CC3)cc2)C(C)(C)[C@H]1Oc1ccc(C#N)c(Cl)c1 (some centres not stated)
Which of the two items, P and Q , has the greater recorded AUC(0-t)? Refer to your chosen item by its label in the answer.
Q
